# Organism: Rattus norvegicus
# measurement.description: Open TG-GATES - Regimen: Daily Repeat
# Format: toxicity, organism-based, Sprague-Dawley
# Set-up: regimen Daily Repeat, gender Male, age 6 weeks
# condition.notes: in vivo, po, 0 mg/kg, […], tissue Plasma, route gavage, dose level Control, time 28 day
endpoint: ALT (IU/L)
The reply should contain only the number, in IU/L.

# count of solved cases: 3
compound: O=C(OC[C@H]1O[C@@H](OC(=O)c2cc(O)c(O)c(OC(=O)c3cc(O)c(O)c(O)c3)c2)[C@H](OC(=O)c2cc(O)c(O)c(OC(=O)c3cc(O)c(O)c(O)c3)c2)[C@@H](OC(=O)c2cc(O)c(O)c(OC(=O)c3cc(O)c(O)c(O)c3)c2)[C@@H]1OC(=O)c1cc(O)c(O)c(OC(=O)c2cc(O)c(O)c(O)c2)c1)c1cc(O)c(O)c(OC(=O)c2cc(O)c(O)c(O)c2)c1 [TANNIC ACID]
endpoint: ALT
value.reported: 29.4
//
compound: CCCc1cc(=O)[nH]c(=S)[nH]1 [PROPYLTHIOURACIL]
endpoint: ALT
value.reported: 27
//
compound: CCOc1ccc(NC(C)=O)cc1 [PHENACETIN]
endpoint: ALT
value.reported: 37

Query string: # ALT lookup, item CC(C)NNC(=O)c1ccncc1 [IPRONIAZID]
Result string: 38.8

Query string: Request the reported ALT associated with Brc1ccccc1 [BROMOBENZENE]
Result string: 45.8

Query string: Name the reported ALT value associated with the compound CN(C)CCC(c1ccc(Cl)cc1)c1ccccn1 (stereo not drawn) [CHLORPHENIRAMINE]
Result string: 37.2

Query string: Given CN/C(=N/CCSCc1nc[nH]c1C)NC#N [CIMETIDINE] , state its recorded ALT.
Result string: 31

Query string: What does the record list as ALT for CN1C(=O)CCS(=O)(=O)C1c1ccc(Cl)cc1 (stereo not drawn) [CHLORMEZANONE] ?
Result string: 45.6
